TARGET_ENTITY: HIV-1 RT (Human immunodeficiency virus type 1 group M subtype B, UniProt P03367)
Construct: Reverse transcriptase enzyme from the LAV strain of Human Immunodeficiency Virus (HIV-1) (1) was isolated from the bacterial strain JM109; made in house; host or cells: E. coli JM109, clone pBRTprtl+ in vector pIBI21 (lac promoter, IPTG induction)
PROTOCOL_TEXT: Reverse Transcriptase (RT) Assay: inhibition of RNA-dependent DNA polymerase activity
Format: biochemical
ASSAY_CONDITIONS: compound at 1 »M (footnote *); read-out: RT Inhibition % (* % inh. @ 1 »M)
Kindly supply the reported inhibition at 1 µM values for the records listed here.
Give bare numbers, in %.

// known answers, use as guide
{"STRUCTURE_STRING": "CCN1C(=O)c2cc(N)cnc2Oc2cc(C)cc(C)c21", "RECORDED_RESULT": 93}
{"STRUCTURE_STRING": "CCN1C(=O)c2cccnc2Oc2cccc(N)c21", "RECORDED_RESULT": 33}
{"STRUCTURE_STRING": "CCN1C(=O)c2cccnc2Oc2cc(C)ccc21", "RECORDED_RESULT": 67}
{"STRUCTURE_STRING": "Cc1ccc2c(c1)Oc1ncc(N)cc1C(=O)N2C", "RECORDED_RESULT": 57}
{"STRUCTURE_STRING": "Cc1cc(C)c2c(c1)Oc1ncc(N)cc1C(=O)N2C", "RECORDED_RESULT": 92}

Please go through the list and note inhibition at 1 µM for each molecule.
1. Cc1ccc2c(c1)Oc1ncccc1C(=O)N2C
2. CCCN1C(=O)c2cc(N)cnc2Oc2cc(C)cc(C)c21

Reply |
43
82

---

TARGET_ENTITY: HIV-1 RT (Human immunodeficiency virus type 1 group M subtype B, UniProt P03367)
Construct: Reverse transcriptase enzyme from the LAV strain of Human Immunodeficiency Virus (HIV-1) (1) was isolated from the bacterial strain JM109; made in house; host or cells: E. coli JM109, clone pBRTprtl+ in vector pIBI21 (lac promoter, IPTG induction)
PROTOCOL_TEXT: Reverse Transcriptase (RT) Assay: inhibition of RNA-dependent DNA polymerase activity
Format: biochemical
Parameters: tested at 10 µg/ml
ASSAY_CONDITIONS: poly r(C)/oligo d(G) template, ³H-dGTP, 60 minutes at room temperature
Protocol: Utilizing the Reverse Transcriptase (RT) Assay described below, compounds can be tested for their ability to inhibit the RNA-dependent DNA polymerase activity of HIV-1 RT. Certain specific compounds described in the Examples which appear below, were so tested. […] The 2X concentrated stock reaction mixture is aliquoted and stored at -20°C. […] Each vial receives 2 mls of scintillation cocktail and is counted in a Beckman beta counter. […]
Kindly supply the reported RT Inhibition % @ 10 »g/ml values for the records listed here.
Give bare numbers, in %.

// known answers, use as guide
{"COMPOUND": "CCN1C(=O)c2cccnc2Oc2ccccc21 [Example 8]", "PROPERTY_NAME": "RT Inhibition % @ 10 »g/ml", "UNIT_ABBREV": "%", "RECORDED_RESULT": 77}
{"COMPOUND": "CCCN1C(=O)c2cccnc2Oc2ccccc21 [Example 1]", "PROPERTY_NAME": "RT Inhibition % @ 10 »g/ml", "UNIT_ABBREV": "%", "RECORDED_RESULT": 80}
{"COMPOUND": "CN1C(=O)c2cccnc2Oc2ccccc21 [Example 7]", "PROPERTY_NAME": "RT Inhibition % @ 10 »g/ml", "UNIT_ABBREV": "%", "RECORDED_RESULT": 71}

Please go through the list and note RT Inhibition % @ 10 »g/ml for each compound.
1. CCN1C(=O)c2cccnc2Sc2ccccc21 [Example 2]
2. CCC(=O)N1C(=O)c2cccnc2Oc2ccccc21 [Example 10]
3. CN1C(=O)c2cccnc2Sc2ccccc21 [Example 15]

Reply |
1. 89
2. 28
3. 85

Ask | Query (compound): C=CCN1C(=O)c2cccnc2Oc2ccccc21 [Example 9] ; field requested: RT Inhibition % @ 10 »g/ml
Reply | 89

Cited source: patent EP0415303B1
